assay-target: MERTK (UniProt Q12866)
Sequence (Q12866 whole entry, looked up): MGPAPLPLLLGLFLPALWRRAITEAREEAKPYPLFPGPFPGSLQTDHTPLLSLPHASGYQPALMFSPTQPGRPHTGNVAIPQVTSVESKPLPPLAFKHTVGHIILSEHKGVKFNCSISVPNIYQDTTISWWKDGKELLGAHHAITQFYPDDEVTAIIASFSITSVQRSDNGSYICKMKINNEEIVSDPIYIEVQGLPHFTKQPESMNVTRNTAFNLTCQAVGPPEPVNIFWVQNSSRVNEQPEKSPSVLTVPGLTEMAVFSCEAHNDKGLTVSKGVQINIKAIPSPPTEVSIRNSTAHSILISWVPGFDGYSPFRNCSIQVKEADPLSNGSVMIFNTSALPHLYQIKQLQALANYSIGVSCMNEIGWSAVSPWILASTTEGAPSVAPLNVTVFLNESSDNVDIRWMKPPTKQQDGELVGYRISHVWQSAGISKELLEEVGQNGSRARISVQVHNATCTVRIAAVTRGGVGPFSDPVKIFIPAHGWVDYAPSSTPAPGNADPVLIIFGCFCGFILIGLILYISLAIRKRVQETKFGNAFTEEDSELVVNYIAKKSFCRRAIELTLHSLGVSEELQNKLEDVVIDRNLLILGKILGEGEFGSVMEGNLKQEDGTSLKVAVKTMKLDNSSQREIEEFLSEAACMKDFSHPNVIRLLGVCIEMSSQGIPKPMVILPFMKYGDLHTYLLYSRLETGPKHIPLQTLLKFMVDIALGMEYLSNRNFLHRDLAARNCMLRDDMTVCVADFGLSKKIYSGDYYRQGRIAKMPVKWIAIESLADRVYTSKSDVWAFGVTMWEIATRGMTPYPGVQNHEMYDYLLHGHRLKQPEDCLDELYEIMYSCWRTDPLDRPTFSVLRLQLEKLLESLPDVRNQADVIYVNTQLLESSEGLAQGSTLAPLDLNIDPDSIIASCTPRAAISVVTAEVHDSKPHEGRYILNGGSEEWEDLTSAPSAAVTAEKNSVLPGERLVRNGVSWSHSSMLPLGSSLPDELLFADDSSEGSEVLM
procedure-summary: phosphorylation enrichment, bacterial display (enrichment ratio); higher = better substrate or ligand; peptides without Tyr show the background;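 note: 11-residue human phosphosite peptides and single-mutation variants displayed on the E. coli surface, counted by deep sequencing, each peptide's frequency after selection divided by its frequency in the unselected input library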;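 note: frequency after pTyr selection over input frequency; kinase dosed for 20-30% of maximal phosphorylation in three min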
result-type: phosphorylation enrichment

Record excerpt, results attached:
GDNNIYVTKII [DLG1_Y349_S347N]
0.461
PYIDSYEKDVA [PGM1_Y521_L516P]
0.763
RIDPDYVGRVR [IGSF9_Y81]
0.405
FRAPGYREVVI [TNS2_Y673_YF]
0.467
RVSSVYTRSTG [CCR5_Y339_A335V]
0.665
CTTIHYTFMCN [TP53_Y234_N235T_YF]
0.536
DEFLEHRRIVG [FAM221A_Y20_Y20H_YF]
0.48
NHFKIYNPCAE [PTEN_Y68_L70P_YF]
0.452

Query block: # phosphorylation enrichment lookup, item PNATLYKMTSI [SERPINA7_Y40_S43T]
Result block: 0.918

Query block: What does the data say about its phosphorylation enrichment? Entry: IMAYFYMCDRA [CASD1_Y382]
Result block: 0.494

Query block: May I ask what phosphorylation enrichment has been recorded for HCHEGYVLHGA [SVEP1_Y2921_I2922V] ?
Result block: 0.474

Query block: Item under review: LFSINYLHFGD [KDM4C_Y201_E206D_YF] . Reported phosphorylation enrichment?
Result block: 0.783

Query block: Which measured phosphorylation enrichment value corresponds to DQVEQYNKELE [LMNA_Y259_K260N] ?
Result block: 0.418

Query block: Which phosphorylation enrichment is reported for this sequence? HNLDYYKMTTN [FGFR3_Y648_K650M]
Result block: 0.68
